- System: cloned human or rodent CNS receptors, channels, and transporters (PDSP panel)
- MEASUREMENT_DESCRIPTION: PDSP GPCR panel primary binding assays at 10 μM
- COND: Alpha1A; primary assay, replicate 3
READOUT_KIND: Inhibition 3 (%)
Quick note: give the figure in %, leave out the unit.

{"columns": ["MOLECULE", "READOUT_KIND", "MEASUREMENT"],
 "data": [
  ["CCC(=O)N1CCC(NC(=O)Nc2ccc(OC(F)(F)F)cc2)CC1 [UNC10302681A, TPPU]", "Inhibition 3", -5.52],
  ["CC(=O)N1CCC(NC(=O)NC23CC4CC(CC(C4)C2)C3)CC1 [UNC10302683A, AR9281]", "Inhibition 3", -13.37],
  ["O=C(NC1CC1)C(=O)C(Cc1ccccc1)NC(=O)[C@H]1CCC(=O)N1Cc1ccccc1 (stereo partly shown) [UNC10302676A, ABT-957 (Alicapistat)]", "Inhibition 3", -21.43]
]}

We now examine a further molecule.
*Q* Could you share which Inhibition 3 value was measured for CNc1nc(C)nc(N[C@H]2CCC[C@@H](C(=O)NCc3ccc(C#N)cc3C(F)(F)F)C2)n1 [UNC10302679A, GSK2256294A] ?
*A* -14.5
